Values compiled from patent US11040026B2.

assay: Rodent pharmacokinetic study; assay type: in vivo, Male Wistar rats; conditions: rat, oral (gavage) 3 mg/kg vs intravenous 1 mg/kg
PROPERTY LABEL: F (%)
Give bare numbers, in %.

Reference set, count: 3
LINE NOTATION: CN1CCOc2c(Cc3ccc(F)cc3)cc(C(=O)N[C@H]3CCCC[C@@H]3O)nc21
F (%): 13
--
LINE NOTATION: Cn1ccc2c(Cc3ccnc(F)c3)cc(C(=O)N[C@H]3CCCC[C@@H]3O)nc21
F (%): 59
--
LINE NOTATION: O=C(N[C@H]1CCCC[C@@H]1O)c1cc(Cc2ccc(F)cc2)c2c(n1)OCCO2
F (%): 46

Moving on to another molecule below.
q: Query: F; subject: `Cl.O=C(N[C@H]1CCCC[C@@H]1O)c1cc(Cc2ccc(F)cc2)c2c(n1)CNCC2`
a: 32
